- EXPERIMENTAL_TARGET: recombinant human PAI-1 (Homo sapiens)
- Sequence (P05121 24-402): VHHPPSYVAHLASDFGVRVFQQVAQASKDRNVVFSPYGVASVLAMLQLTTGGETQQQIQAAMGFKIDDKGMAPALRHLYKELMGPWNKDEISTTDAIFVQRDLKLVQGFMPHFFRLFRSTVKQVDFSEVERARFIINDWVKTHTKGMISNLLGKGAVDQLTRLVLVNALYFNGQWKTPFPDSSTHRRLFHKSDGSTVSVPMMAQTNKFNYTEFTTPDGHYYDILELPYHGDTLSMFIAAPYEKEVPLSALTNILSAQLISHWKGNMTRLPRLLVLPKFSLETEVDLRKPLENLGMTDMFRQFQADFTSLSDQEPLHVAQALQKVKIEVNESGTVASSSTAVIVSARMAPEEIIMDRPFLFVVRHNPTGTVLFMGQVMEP
- ASSAY_INFO: Test Example 2: Human PAI-1 Inhibitory Activity (pH 7.4 HEPES buffer, 10 minutes incubation with two-chain tPA)
- Assay type: biochemical
- Parameters: purchased Molecular Innovations, Inc
- EXPERIMENTAL_SETUP: read-out: Inhibition Rate of PAI-1 Activity (%)
READOUT_NAME: inhibition at 0.3 µM

Input: Input CC(C)(C)c1ccc(COc2ccc(-c3ccc(OC(F)(F)F)cc3)cc2N(Cc2ccccc2)C(=O)C(=O)O)cc1 , output reported inhibition at 0.3 µM.
Output: 19%

Input: Supply inhibition at 0.3 µM value. Item: CCCCOc1ccc(Oc2cc(-c3ccc(OC(F)(F)F)cc3)ccc2OCC(=O)O)cc1
Output: 15%

Input: For the compound O=C(O)CCc1ccc(-c2ccc(OC(F)(F)F)cc2)cc1Oc1ccc(OC(F)(F)F)cc1 , report inhibition at 0.3 µM.
Output: 14%

Input: Recall and state the measured inhibition at 0.3 µM for Cc1cc(C)cc(-c2ccc(CCC(=O)O)c(Oc3ccc(C(C)(C)C)cc3)c2)c1 .
Output: 4%

Input: Supply recorded inhibition at 0.3 µM for CC(C)(C)c1ccc(Oc2cc(-c3cccc(OC(F)(F)F)c3)ccc2OCC(=O)O)cc1 here.
Output: 1%

Input: Indicate the recorded inhibition at 0.3 µM value for this compound: CC(C)(C)c1ccc(Oc2ccc(-c3ccc(C(F)(F)F)cc3)cc2OCC(=O)O)cc1
Output: 14%

Input: // Input: CCCCCOc1ccc(-c2ccc(Oc3ccc(C(C)(C)C)cc3)c(OCC(=O)O)c2)cc1 . Output its inhibition at 0.3 µM only.
Output: 17%

Input: Look up inhibition at 0.3 µM of O=C(O)/C=C/c1ccc(-c2ccc(OC(F)(F)F)cc2)cc1OCCCSc1ccccc1 and report it.
Output: 14%

Input: Give the value of inhibition at 0.3 µM reported for the following: CC(C)(C)c1ccc(COc2cc(-c3ccc(OC(F)(F)F)cc3)ccc2CCC(=O)O)cc1
Output: 12%

Input: Return inhibition at 0.3 µM for the following compound: CC(C)(C)c1ccc(Oc2cccc(-c3ccc(OC(F)(F)F)cc3)c2CCC(=O)O)cc1
Output: 3%

Input: Give the value of inhibition at 0.3 µM reported for the following: CCCCCOc1ccc(-c2ccc(C(F)(F)F)cc2)cc1N(CCCCc1ccccc1)C(=O)C(=O)O
Output: 12%

Input: Let me know recorded inhibition at 0.3 µM for CC(C)(Oc1c(Oc2ccc(C(C)(C)C)cc2)cccc1-c1ccc(OC(F)(F)F)cc1)C(=O)O , thanks.
Output: 11%

Input: For the compound O=C(O)CCCCCCOc1ccc(-c2ccc(OC(F)(F)F)cc2)cc1N(CCCCc1ccccc1)C(=O)C(=O)O , give its reported inhibition at 0.3 µM.
Output: 11%

Input: Give a short answer stating reported inhibition at 0.3 µM for CCCCCOc1ccc(-c2ccc(OC(F)(F)F)cc2)cc1N(CCCCc1ccc(F)cc1)C(=O)C(=O)O .
Output: 12%

Input: Could you please provide reported inhibition at 0.3 µM for CCCCOc1ccc(-c2ccc(OC(F)(F)F)cc2)cc1N(Cc1ccc(C(C)(C)C)cc1)C(=O)C(=O)O ? Thanks!
Output: 2%

Input: Could you please provide reported inhibition at 0.3 µM for O=C(O)C(=O)N(CCCCc1ccccc1)c1ccc(-c2ccc3ccccc3c2)cc1 ? Thanks!
Output: 12%

Input: Fill in inhibition at 0.3 µM for record CC(C)(C)c1ccc(Oc2cc(Oc3ccc(OC(F)(F)F)cc3)ccc2CCC(=O)O)cc1
Output: 6%

Input: Specify measured inhibition at 0.3 µM for O=C(O)C(=O)N(CCCCc1ccccc1)c1cc(-c2ccc(OC(F)(F)F)cc2)ccc1OC1CCCCC1 .
Output: 22%

Input: Give the measured inhibition at 0.3 µM for CC(C)(C)c1ccc(Oc2cc(-c3cccc(OC(F)(F)F)c3)ccc2/C=C/C(=O)O)cc1
Output: 27%

Input: Look up and state reported inhibition at 0.3 µM for CCCCC(Oc1cc(-c2cccc(C(F)(F)F)c2)ccc1Oc1ccc(C(C)(C)C)cc1)C(=O)O (stereo not shown)
Output: 20%

Input: Check the records and state inhibition at 0.3 µM for CCCCCOc1cc(-c2ccc(OC(F)(F)F)cc2)cc(OCCCCC)c1OCC(=O)O
Output: 4%

Input: Find the measured inhibition at 0.3 µM of CC(C)(C)c1ccc(Oc2cc(-c3ccccc3OC(F)(F)F)ccc2CCC(=O)O)cc1 and report it.
Output: 6%

Input: Identify the reported inhibition at 0.3 µM for the following entry. Cc1cc(C)cc(-c2ccc(/C=C/C(=O)O)c(Oc3ccc(C(C)(C)C)cc3)c2)c1
Output: 9%

Input: Supply reported inhibition at 0.3 µM belonging to this compound: CC(C)c1ccc(-c2ccc(/C=C/C(=O)O)c(Oc3ccc(C(C)(C)C)cc3)c2)cc1
Output: 54%

Input: Quickly give me recorded inhibition at 0.3 µM for CCCCOc1ccc(-c2ccc(OC(F)(F)F)cc2)cc1N(CCCCc1ccccc1)C(=O)C(=O)O
Output: 6%
